Values were extracted from paper PMC4608832.

test: In vitro microsomal metabolic stability; details: human, microsomes, pH 7.4, NADPH-free t1/2, human liver microsomes, [Compd] = 1 μM, [protein] = 0.3 mg/mL, without NADPH
property: half-life at 1 μM

Qu. Request the reported half-life at 1 μM associated with CCN(CC)CCCC(C)Nc1ccnc2cc(Cl)ccc12 (stereo not shown)
Ans. > 240 min

###

experiment: in vitro; conditions: human, microsomes, pH 7.4
property: microsomal CLint at 1 μM (µL/min/mg)
Kindly provide the numeric value in µL/min/mg only, without the unit symbol.

[
  {
    "molecule": "CCN(CC)Cc1cc(Nc2ccnc3cc(Cl)ccc23)ccc1O [AQ, amodiaquine, reference compound]",
    "displayUnit": "µL/min/mg",
    "microsomal CLint at 1 μM": 431
  }
]

Proceeding to the next molecule to report its microsomal CLint at 1 μM.
Qu. Which measured microsomal CLint at 1 μM value corresponds to CCN(CC)CCCC(C)Nc1ccnc2cc(Cl)ccc12 (centres unmarked) [CQ, chloroquine] ?
Ans. 17.5
